B1: PhoQ; a variant is named by its letters at X, in order, P23837 (parent)
chain: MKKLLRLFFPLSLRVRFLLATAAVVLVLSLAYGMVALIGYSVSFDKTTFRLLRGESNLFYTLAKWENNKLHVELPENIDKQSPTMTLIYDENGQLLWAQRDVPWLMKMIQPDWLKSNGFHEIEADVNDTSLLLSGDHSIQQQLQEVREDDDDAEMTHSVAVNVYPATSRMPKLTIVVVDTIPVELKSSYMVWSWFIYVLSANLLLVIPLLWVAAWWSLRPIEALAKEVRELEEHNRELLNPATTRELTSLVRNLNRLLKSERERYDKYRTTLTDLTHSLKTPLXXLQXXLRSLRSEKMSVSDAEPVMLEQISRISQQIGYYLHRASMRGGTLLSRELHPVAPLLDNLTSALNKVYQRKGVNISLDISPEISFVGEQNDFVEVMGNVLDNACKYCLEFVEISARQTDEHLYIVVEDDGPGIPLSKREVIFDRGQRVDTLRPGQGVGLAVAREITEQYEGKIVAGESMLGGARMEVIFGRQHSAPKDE

Variants of: B1
Experiment: enrichment ratio after two sorts for PhoP signalling (ratio (wild type AVST 3.29)); higher = more functional
Settings: with PhoP (E. coli)
Whole data set: some 140,000 sequences, median “enrichment ratio after two sorts for PhoP signalling” near 0, cut for the highest 2% near 11. The entries come from a sample that favours the highest values as a whole.
Examples of variants with documented enrichment ratio follow.
metric: enrichment ratio

| mutation-name | endpoint-result |
| --- | --- |
| YSKR | ≤ 0.25 |
| YHCM | ≤ 0.25 |
| QCRR | ≤ 0.25 |
| YYHG | ≤ 0.25 |
| GITE | ≤ 0.25 |
| STHG | ≤ 0.25 |
| KCHM | ≤ 0.25 |
| WKIW | ≤ 0.25 |
| SNYI | 0.257 |
| WLCM | ≤ 0.25 |
| SSMM | 19.1 |
| HYPL | ≤ 0.25 |
| YSEC | ≤ 0.25 |
| THVR | ≤ 0.25 |
| TCEG | ≤ 0.25 |
| APTN | ≤ 0.25 |
| GAMG | ≤ 0.25 |
| EPRQ | ≤ 0.25 |
| VTMH | ≤ 0.25 |
| PLCT | ≤ 0.25 |
| YDLP | ≤ 0.25 |
| MCHM | 16.7 |
| MNFC | ≤ 0.25 |
| MGMC | 5.27 |
| SACT | 14 |
| SRCT | ≤ 0.25 |
| STCM | 13.3 |
| MDHM | ≤ 0.25 |
| WCTK | ≤ 0.25 |
| MTHG | ≤ 0.25 |
| SQMM | 3.97 |
| RKLH | ≤ 0.25 |
| NGMM | ≤ 0.25 |
| MHGF | ≤ 0.25 |
| NDFH | ≤ 0.25 |
| QEHG | 11.2 |
| STNQ | 1.23 |
| YYMM | ≤ 0.25 |
| YTMM | 11.8 |
| DNCI | ≤ 0.25 |
| MIFM | 15.8 |
| GYAC | ≤ 0.25 |
| TTCM | 24.5 |
| TGMM | 16 |
| MNAC | 27.7 |
| VMNW | ≤ 0.25 |
